- assayed_system: QPCTL (Homo sapiens (Human), UniProt Q9NXS2)
- experimental_protocol: QPCTL Enzymatic Activity Assay (coupled-enzyme fluorescent assay, H-Gln-AMC substrate)
- Format: biochemical
- experimental_conditions: recombinant truncated human QPCTL 10-12 nM, 10 μM H-Gln-AMC; read-out: QPCTL Inhibition IC50
- Sequence (Q9NXS2 53-382): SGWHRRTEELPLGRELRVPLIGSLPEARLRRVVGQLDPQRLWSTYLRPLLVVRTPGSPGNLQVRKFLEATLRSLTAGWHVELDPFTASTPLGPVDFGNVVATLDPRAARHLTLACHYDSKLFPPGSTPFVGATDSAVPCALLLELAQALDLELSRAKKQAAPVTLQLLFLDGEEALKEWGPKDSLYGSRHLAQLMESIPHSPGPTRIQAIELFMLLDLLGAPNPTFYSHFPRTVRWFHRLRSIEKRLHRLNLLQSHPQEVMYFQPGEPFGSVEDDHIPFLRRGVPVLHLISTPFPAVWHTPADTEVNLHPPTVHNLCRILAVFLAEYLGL
pIC50: −log10 of the molar value.
Entries and their pIC50

{"columns": ["structure_smiles", "assayed_system", "pIC50"],
 "data": [
  ["Cn1ncc(-c2cccc(C#N)c2N2CCC(c3nncn3C)CC2)n1", "QPCTL (Homo sapiens (Human), UniProt Q9NXS2)", "6.00 to 7.00"],
  ["[2H]C([2H])([2H])n1cnnc1C1CCN(c2c(-c3ccnnc3)ccc(-c3cnn(C)c3)c2C#N)CC1", "QPCTL (Homo sapiens (Human), UniProt Q9NXS2)", "> 7.00"],
  ["CNCCN(C)c1ccc(-c2ccc(F)nc2)c(N2CCC(c3nncn3C)CC2)c1C#N", "QPCTL (Homo sapiens (Human), UniProt Q9NXS2)", "> 7.00"],
  ["Cn1cnnc1C1CCN(c2c(-c3ccc(F)nc3)ccc(NS(C)(=O)=O)c2C#N)CC1", "QPCTL (Homo sapiens (Human), UniProt Q9NXS2)", "> 7.00"],
  ["Cn1cnnc1C1CCN(c2c(C#N)cccc2-c2cccnc2)CC1", "QPCTL (Homo sapiens (Human), UniProt Q9NXS2)", "> 7.00"],
  ["COc1ccncc1-c1cccc(C#N)c1N1CCC(c2cncs2)CC1", "QPCTL (Homo sapiens (Human), UniProt Q9NXS2)", "6.00 to 7.00"],
  ["Cn1cnnc1C1CCN(c2c(-c3ccc(F)nc3)ccc(-c3cc[nH]n3)c2C#N)CC1", "QPCTL (Homo sapiens (Human), UniProt Q9NXS2)", "> 7.00"],
  ["Cn1cc2c(-c3cccc(C#N)c3N3CCC(c4nncn4C)CC3)cncc2n1", "QPCTL (Homo sapiens (Human), UniProt Q9NXS2)", "> 7.00"],
  ["Cn1cnnc1C1CCN(c2c(C#N)cccc2-c2ccc3c(c2)B(O)OC3)CC1", "QPCTL (Homo sapiens (Human), UniProt Q9NXS2)", "6.00 to 7.00"],
  ["C#Cc1ccc(-c2cccc(C#N)c2N2CCC(c3nncn3C)CC2)cc1C=O", "QPCTL (Homo sapiens (Human), UniProt Q9NXS2)", "6.00 to 7.00"],
  ["Cn1cnnc1C1CCN(c2c(C#N)cc(S(C)(=O)=O)cc2-c2ccc(F)nc2)CC1", "QPCTL (Homo sapiens (Human), UniProt Q9NXS2)", "> 7.00"],
  ["Cn1cnnc1C1CCN(c2c(C#N)cccc2-c2cncc(OS(=O)(=O)F)c2)CC1", "QPCTL (Homo sapiens (Human), UniProt Q9NXS2)", "> 7.00"],
  ["Cn1cnnc1C1CCN(c2c(-c3ccc(F)nc3)ccc(-c3ccn(C4CC4)n3)c2C#N)CC1", "QPCTL (Homo sapiens (Human), UniProt Q9NXS2)", "> 7.00"],
  ["Cn1cnnc1C1CCN(c2c(-c3ccc(F)nc3)cc3cn[nH]c3c2C#N)CC1", "QPCTL (Homo sapiens (Human), UniProt Q9NXS2)", "> 7.00"],
  ["Cn1cnnc1C1CCN(c2c(C#N)cccc2-c2ccc(O)nc2)CC1", "QPCTL (Homo sapiens (Human), UniProt Q9NXS2)", "> 7.00"],
  ["Cn1cnnc1C1CCN(c2c(C#N)cccc2-c2ccc(C(F)(F)F)nc2)CC1", "QPCTL (Homo sapiens (Human), UniProt Q9NXS2)", "6.00 to 7.00"],
  ["Cc1cc(-c2ccc(OCCN(C)C)c(C#N)c2N2CCC(c3nncn3C)CC2)cnn1", "QPCTL (Homo sapiens (Human), UniProt Q9NXS2)", "> 7.00"],
  ["CN(C)C(=O)c1ccc(-c2ccc(F)nc2)c(N2CCC(c3nncn3C)CC2)c1C#N", "QPCTL (Homo sapiens (Human), UniProt Q9NXS2)", "> 7.00"],
  ["Cn1cnnc1N1CCN(c2c(-c3ccc(F)nc3)ccc(C3CC3)c2C#N)CC1", "QPCTL (Homo sapiens (Human), UniProt Q9NXS2)", "> 7.00"],
  ["Cn1cnnc1C1CCN(c2c(C#N)cccc2-c2cnc3cn[nH]c3c2)CC1", "QPCTL (Homo sapiens (Human), UniProt Q9NXS2)", "6.00 to 7.00"],
  ["Cn1ccc(-c2ccc(-c3ccc(O)c(C=O)c3)c(N3CCC(c4nncn4C)CC3)c2C#N)n1", "QPCTL (Homo sapiens (Human), UniProt Q9NXS2)", "> 7.00"],
  ["Cn1cc(-c2cnc(-c3ccc(F)nc3)c(N3CCC(c4nncn4C)CC3)c2C#N)cn1", "QPCTL (Homo sapiens (Human), UniProt Q9NXS2)", "< 5.00"],
  ["Cn1cnnc1C1CCN(c2c(C#N)cccc2-c2ccc(F)cc2)CC1", "QPCTL (Homo sapiens (Human), UniProt Q9NXS2)", "> 7.00"],
  ["CN(C)CCNc1ccc(-c2ccc(F)nc2)c(N2CCC(c3nncn3C)CC2)c1C#N", "QPCTL (Homo sapiens (Human), UniProt Q9NXS2)", "> 7.00"],
  ["Cn1cnnc1C1CCN(c2c(C#N)cccc2-c2ccc(OS(=O)(=O)F)nc2)CC1", "QPCTL (Homo sapiens (Human), UniProt Q9NXS2)", "> 7.00"],
  ["Cn1ccc(-c2cnc(-c3ccc(F)nc3)c(N3CCC(c4nncn4C)CC3)c2C#N)n1", "QPCTL (Homo sapiens (Human), UniProt Q9NXS2)", "< 5.00"],
  ["Cn1cnnc1C1CCN(c2c(-c3ccc(F)nc3)ccc(-c3cn[nH]c3)c2C#N)CC1", "QPCTL (Homo sapiens (Human), UniProt Q9NXS2)", "> 7.00"],
  ["Cn1cnnc1C1CCN(c2c(-c3ccc(F)nc3)ccc(N3CC(O)C3)c2C#N)CC1", "QPCTL (Homo sapiens (Human), UniProt Q9NXS2)", "> 7.00"],
  ["COc1ccncc1-c1ccc(Cl)c(C#N)c1N1CCC(c2nncn2C)CC1", "QPCTL (Homo sapiens (Human), UniProt Q9NXS2)", "> 7.00"],
  ["Cn1cnnc1C1CCN(c2c(-c3ccc(F)nc3)ccc(N3CCNCC3)c2C#N)CC1", "QPCTL (Homo sapiens (Human), UniProt Q9NXS2)", "> 7.00"],
  ["Cn1cnnc1C1CCN(c2c(C#N)cccc2-c2cccc(C=O)c2)CC1", "QPCTL (Homo sapiens (Human), UniProt Q9NXS2)", "6.00 to 7.00"],
  ["Cn1cnnc1C1CCN(c2c(C#N)cccc2-c2cnnc(O)c2)CC1", "QPCTL (Homo sapiens (Human), UniProt Q9NXS2)", "> 7.00"],
  ["Cn1cnnc1C1CCN(c2c(C#N)cccc2-c2cncc(B(O)O)c2)CC1", "QPCTL (Homo sapiens (Human), UniProt Q9NXS2)", "> 7.00"],
  ["Cc1ccc(-c2ccc(F)nc2)c(N2CCC(c3nncn3C)CC2)c1C#N", "QPCTL (Homo sapiens (Human), UniProt Q9NXS2)", "> 7.00"]
]}

----------
Entries and their IC50
- assayed_system: UniProtKB Q9NXS2
- experimental_protocol: QPCTL Enzymatic Activity Assay (coupled-enzyme fluorescent assay, H-Gln-AMC substrate)
- Type: biochemical
- experimental_conditions: recombinant truncated human QPCTL 10-12 nM, 10 μM H-Gln-AMC; read-out: QPCTL Inhibition IC50

{"columns": ["structure_smiles", "IC50"],
 "data": [
  ["Cn1cnnc1C1CCN(c2c(C#N)cccc2-c2cncc(Cl)c2)CC1", "< 100 nM"],
  ["CC(=O)c1ccc(-c2ccc(F)nc2)c(N2CCC(c3nncn3C)CC2)c1C#N", "< 100 nM"],
  ["Cn1cnnc1C1CCN(c2c(C#N)ccc(F)c2-c2ccc(F)nc2)CC1", "< 100 nM"],
  ["Cc1cc(-c2cccc(C#N)c2N2CCC(c3nncn3C)CC2)cnn1", "< 100 nM"],
  ["Cn1cnnc1C1CCN(c2c(-c3ccc(F)nc3)ccc(-c3ccnc(N)c3)c2C#N)CC1", "< 100 nM"],
  ["COCCOc1ccc(-c2ccc(F)nc2)c(N2CCC(c3nncn3C)CC2)c1C#N", "< 100 nM"],
  ["Cc1cc(-c2ccc(-c3cn[nH]c3)c(C#N)c2N2CCC(c3nncn3C)CC2)cnn1", "< 100 nM"]
]}

----------
Entries and their pIC50
- assayed_system: QPCTL (Homo sapiens (Human))
- experimental_protocol: Inhibition of Cellular QPCTL Activity - Imaging Assay, CC2C6 anti-CD47 staining of DLD-1 cells
- Type: cell-based
- experimental_conditions: 72 hours, CC2C6 anti-CD47 high-content imaging
- Sequence (Q9NXS2 whole entry): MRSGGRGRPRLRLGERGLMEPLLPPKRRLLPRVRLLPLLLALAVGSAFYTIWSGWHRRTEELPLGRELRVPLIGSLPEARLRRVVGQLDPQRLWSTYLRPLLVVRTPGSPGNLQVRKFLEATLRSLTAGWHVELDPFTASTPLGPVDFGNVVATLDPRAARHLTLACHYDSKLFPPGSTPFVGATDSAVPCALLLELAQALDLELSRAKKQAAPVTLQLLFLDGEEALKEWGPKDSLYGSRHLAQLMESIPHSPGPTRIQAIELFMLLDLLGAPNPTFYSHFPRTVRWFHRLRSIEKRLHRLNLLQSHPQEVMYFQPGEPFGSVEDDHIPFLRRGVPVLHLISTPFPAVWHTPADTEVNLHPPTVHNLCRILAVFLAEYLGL
pIC50: −log10 of the molar value.

{"columns": ["structure_smiles", "pIC50"],
 "data": [
  ["Cn1cnnc1C1CCN(c2c(-c3ccc(F)nc3)cc3cn[nH]c3c2C#N)CC1", "6.00 to 7.00"],
  ["Cn1cnnc1C1CCN(c2c(-c3ccc(F)nc3)ccc(-c3cnn4c3OCCC4)c2C#N)CC1", "> 7.00"],
  ["Cn1cnnc1C1CCN(c2c(-c3ccc(F)nc3)ccc(-c3cnn(C4CC4)c3)c2C#N)CC1", "> 7.00"],
  ["Cn1cnnc1C1CCN(c2c(-c3ccc(F)nc3)ccc(-c3cn[nH]c3)c2C#N)CC1", "> 7.00"],
  ["Cn1cnnc1C1CCN(c2c(-c3ccc(F)nc3)ccnc2C#N)CC1", "> 7.00"],
  ["CNCCN(C)c1ccc(-c2ccc(F)nc2)c(N2CCC(c3nncn3C)CC2)c1C#N", "5.00 to 6.00"],
  ["Cc1cc(-c2ccc(-c3cc[nH]n3)c(C#N)c2N2CCC(c3nncn3C)CC2)cnn1", "< 5.00"],
  ["CNCCOc1ccc(-c2ccc(F)nc2)c(N2CCC(c3nncn3C)CC2)c1C#N", "5.00 to 6.00"]
]}
